Measured myelination accompanies every entry in the list below.
System: E18 rat cortical neuron-glia co-culture
Experiment: myelination (MBP fiber length per Olig2+ nucleus), % of 1 µM DAPT response (DMSO = 0) (% of DAPT); higher = more myelination, active = 50 or more
Details: 1 µM; treatment time: 8 days (DIV5-DIV13)
parameter measured: myelination

molecule | experimental result
CCCCNc1cc(C(=O)O)cc(S(N)(=O)=O)c1Oc1ccccc1 [Bumetanide] | -8.01 (inactive)
CC1Cc2ccccc2N1NC(=O)c1ccc(Cl)c(S(N)(=O)=O)c1 (centres undefined) [Indapamide] | -4.93 (inactive)
NS(=O)(=O)c1cc2c(cc1C(F)(F)F)NC(Cc1ccccc1)NS2(=O)=O (centres undefined) [Bendroflumethiazide] | -24.6 (inactive)
COc1ccc2cc(CCC(C)=O)ccc2c1 | -8.32 (inactive)
CN1C(C(=O)Nc2ccccn2)=C(O)c2ccccc2S1(=O)=O | -10.9 (inactive)
CN1CCN(C2=Nc3cc(Cl)ccc3Nc3ccccc32)CC1 | -14.8 (inactive)
CC(C)(O)c1ccccc1CC[C@@H](SCC1(CC(=O)O)CC1)c1cccc(/C=C/c2ccc3ccc(Cl)cc3n2)c1 | -10.2 (inactive)
c1ccc(CC2=NCCN2)cc1 | -13.6 (inactive)
CC(C)NCC(O)COc1cccc2ccccc12 (centres undefined) | 9.85 (inactive)
CC1(C)O[C@@H]2C[C@H]3[C@@H]4CCC5=CC(=O)C=C[C@]5(C)[C@@]4(F)[C@@H](O)C[C@]3(C)[C@]2(C(=O)CO)O1 [Azmacort] | -5.49 (inactive)
Cc1ccsc1C(=CCCN1CCC[C@@H](C(=O)O)C1)c1sccc1C | -23.8 (inactive)
COc1c2occc2cc2ccc(=O)oc12 | -11.8 (inactive)
CS(=O)(=O)c1ccc(-c2cc(Br)sc2-c2ccc(F)cc2)cc1 | 8.65 (inactive)
CCN(CC)CCOc1ccc(C(=C(Cl)c2ccccc2)c2ccccc2)cc1 | -33.9 (inactive)
CCCN[C@H]1CCc2nc(N)sc2C1 [Pramipexole] | -6.49 (inactive)
Cc1nc2n(c(=O)c1CCN1CCC(c3noc4cc(F)ccc34)CC1)CCCC2 | -7.71 (inactive)
O=C(O)/C=C/c1ccc(Cn2ccnc2)cc1 | -6.75 (inactive)
CCCC(=O)O[C@]1(C(=O)COC(=O)CC)CC[C@H]2[C@@H]3CCC4=CC(=O)CC[C@]4(C)[C@H]3[C@@H](O)C[C@@]21C [Hydrocortisone buteprate] | 5.43 (inactive)
CCC[C@@H]1C[C@@H](C(=O)N[C@@H]([C@H]2O[C@H](SC)[C@H](O)[C@@H](O)[C@H]2O)[C@@H](C)O)N(C)C1 | -22.9 (inactive)
Clc1ccc2c(c1)CCc1cccnc1C2=C1CCNCC1 | -12.9 (inactive)
CO[C@H]1/C=C/O[C@@]2(C)Oc3c(C)c(O)c4c(O)c(c(/C=N/N5CCN(C)CC5)c(O)c4c3C2=O)NC(=O)/C(C)=C\C=C\[C@H](C)[C@H](O)[C@@H](C)[C@@H](O)[C@@H](C)[C@H](OC(C)=O)[C@@H]1C | 12.6 (inactive)
O=c1[nH]c(=O)n(C2CCCO2)cc1F (centres undefined) | -11.7 (inactive)
C[C@H](N[C@@H](CCc1ccccc1)C(=O)O)C(=O)N1CCC[C@H]1C(=O)O | -2.57 (inactive)
CN1[C@@H]2CC[C@H]1C[C@@H](OC(c1ccccc1)c1ccccc1)C2 | < -84.9 (inactive)
CCOC(=O)OC(C)OC1=C(C(=O)Nc2ccccn2)N(C)S(=O)(=O)c2ccccc21 (centres undefined) | -15.1 (inactive)
CC(C)NCC(O)COc1ccc(CCOCC2CC2)cc1 (centres undefined) | -12.6 (inactive)
CC(C)c1nc(CN(C)C(=O)N[C@H](C(=O)N[C@@H](Cc2ccccc2)C[C@H](O)[C@H](Cc2ccccc2)NC(=O)OCc2cncs2)C(C)C)cs1 | -20.5 (inactive)
C[C@]12C[C@H](O)[C@H]3[C@@H](CCC4=CC(=O)CC[C@@]43C)[C@@H]1CC[C@@H]2C(=O)CO | -7.15 (inactive)
CCC1=C(C)CN(C(=O)NCCc2ccc(S(=O)(=O)NC(=O)N[C@H]3CC[C@H](C)CC3)cc2)C1=O [Glimepiride] | -3.14 (inactive)
CCN1CCN(c2cc3c(cc2F)c(=O)c(C(=O)O)cn3C2CC2)CC1 | -5.04 (inactive)
CCCc1cc(=O)[nH]c(=S)[nH]1 | -9.29 (inactive)
COC(=O)C1=C(C)NC(C)=C(C(=O)OCCN(C)Cc2ccccc2)C1c1cccc([N+](=O)[O-])c1 (centres undefined) | -8.17 (inactive)
CC1CNc2c(cccc2S(=O)(=O)N[C@@H](CCCNC(=N)N)C(=O)N2CC[C@@H](C)C[C@@H]2C(=O)O)C1 (some centres undefined) | -43.9 (inactive)
CCCNC(C)C(=O)Nc1ccccc1C (centres undefined) | -5.12 (inactive)

----------
System: E18 rat cortical neuron-glia co-culture
Experiment: fiber score / MBP score (myelination specific beyond OL differentiation) (ratio); higher = more myelination-specific MBP alignment
Settings: 1 µM; treatment time: 8 days (DIV5-DIV13)
Where a name gives a salt, the structure may show the parent alone.

compound | fiber score / MBP score
CN1CCC(=C2c3ccccc3CC(=O)c3sccc32)CC1 [Ketotifen] | 1.03
CC(C)[C@H](N)C(=O)OCCOCn1cnc2c(=O)nc(N)[nH]c21 [Valaciclovir] | 0.731
Nc1nc2c(ncn2COC(CO)CO)c(=O)[nH]1 [Ganciclovir] | 0.944
O=C(O[C@@H]1Cc2c(O)cc(O)cc2O[C@@H]1c1cc(O)c(O)c(O)c1)c1cc(O)c(O)c(O)c1 [Epigallocatechin gallate] | 0.732
Nc1nc2c(ncn2COCCO)c(=O)[nH]1 [Acyclovir] | 0.568
COc1ccnc(C[S+]([O-])c2nc3cc(OC(F)F)ccc3[nH]2)c1OC (stereo not given) [Pantoprazole] | 0.86
C[C@]12C[C@H](O)[C@H]3[C@@H](CCC4=CC(=O)CC[C@@]43C)[C@@H]1CC[C@@H]2C(=O)CO [Corticosterone] | 0.706
CCc1nn(CCCN2CCN(c3cccc(Cl)c3)CC2)c(=O)n1CCOc1ccccc1 [Nefazodone] | 0.932
COc1ccccc1N1CCN(CC(O)COc2cccc3ccccc23)CC1 (stereo not given) [Naftopidil] | 0.655
COc1cc(C(=O)NC2CCCNC2)cc(OC)c1OC (stereo not given) [Troxipide] | 0.692
CCN(CC)CCOc1ccc(C(=C(Cl)c2ccccc2)c2ccccc2)cc1 [Clomiphene] | 0.64
COc1c2occc2cc2ccc(=O)oc12 [Methoxsalen] | 0.488
CN1CCN2c3ncccc3Cc3ccccc3C2C1 (stereo not given) [Mirtazapine] | 0.861
Cc1[nH]cnc1CN1CCc2c(c3ccccc3n2C)C1=O [Alosetron] | 0.768
OC[C@H]1O[C@@H](Oc2cc(O)cc(/C=C/c3ccc(O)cc3)c2)[C@H](O)[C@@H](O)[C@@H]1O [Polydatin] | 0.578
CC(C)NCC(O)c1ccc(NS(C)(=O)=O)cc1 (stereo not given) [Sotalol] | 0.726
CN1CCN(C2=Nc3cc(F)ccc3Cc3ccccc32)CC1 [Fluperlapine] | 1.15
CC=CC(=O)N(CC)c1ccccc1C [Crotamiton] | 0.609
O=S(=O)(O)CCS [Mesna] | 0.768
CC(C)/N=c1\cc2n(-c3ccc(Cl)cc3)c3ccccc3nc-2cc1Nc1ccc(Cl)cc1 [Clofazimine] | 0.742
CC(=O)CCCCn1c(=O)c2c(ncn2C)n(C)c1=O [Pentoxifylline] | 0.817
CCOC(=O)c1ncn2c1CN(C)C(=O)c1cc(F)ccc1-2 [Flumazenil] | 0.859
C[C@H]1c2cccc(O)c2C(=O)C2=C(O)[C@]3(O)C(=O)C(C(N)=O)=C(O)[C@@H](N(C)C)[C@@H]3[C@@H](O)[C@@H]21 [Doxycycline] | 0.798
COc1ccc(OC)c(C(O)CNC(=O)CN)c1 (stereo not given) [Midodrine] | 0.492
O=C1CN2Cc3c(ccc(Cl)c3Cl)N=C2N1 [Anagrelide hydrochloride] | 0.9
CC(C)(S)[C@@H](N)C(=O)O [Penicillamine] | 0.988
CC(=O)O[C@H]1C[C@@H]2CC[C@@H]3[C@H](CC[C@@]4(C)[C@H]3C[C@H]([N+]3(C)CCCCC3)[C@@H]4OC(C)=O)[C@@]2(C)C[C@@H]1N1CCCCC1 [Vecuronium Bromide] | 0.647
Brc1c(NC2=NCCN2)ccc2nccnc12 [Brimonidine] | 0.915
Clc1ccc2c(c1)C(N1CCNCC1)=Nc1ccccc1O2 [Amoxapine] | 1.09
CCC[C@@H]1C[C@@H](C(=O)N[C@@H]([C@H]2O[C@H](SC)[C@H](O)[C@@H](O)[C@H]2O)[C@@H](C)O)N(C)C1 [Lincomycin] | 0.754
CCOC(=O)C1=C(COCCN)NC(C)=C(C(=O)OC)C1c1ccccc1Cl (stereo not given) [Amlodipine] | 0.613
Cc1[nH]c(=O)c(C#N)cc1-c1ccncc1 [Milrinone] | 0.762
CC1(C)O[C@@H]2C[C@H]3[C@@H]4CCC5=CC(=O)C=C[C@]5(C)[C@@]4(F)[C@@H](O)C[C@]3(C)[C@]2(C(=O)CO)O1 [Triamcinolone Acetonide] | 1.37
COc1ccc(-c2cc(=O)c3c(OC)c(OC)c(OC)c(OC)c3o2)cc1OC [Nobiletin] | 1.28
NS(=O)(=O)c1cc2c(cc1C(F)(F)F)NC(Cc1ccccc1)NS2(=O)=O (stereo not given) [Bendroflumethiazide] | 0.474
